- System: E. coli
- assay.conditions: MH media, 5 × 10^5 CFU/mL, 24 h at 37 °C, read at 595 nm; MIC = growth reduced to 10%; average ± SE, 3 biological repeats in triplicates
value.kind: MIC Values, E. coli (µM)
Answers are plain numbers, in µM.

CC[C@H](C)[C@H](NC(=O)[C@H](CCCCN)NC(=O)[C@H](CCCCN)NC(=O)[C@H](Cc1ccccc1)NC(=O)[C@H](CC(C)C)NC(=O)[C@H](CCCCN)NC(=O)[C@@H](N)CC(C)C)C(=O)N[C@@H](CC(C)C)C(=O)N[C@@H](CCCCN)C(=O)N[C@@H](Cc1ccc(O)cc1)C(=O)N[C@@H](CC(C)C)C(N)=O = 3
CC[C@H](C)[C@H](NC(=O)[C@H](CCCCN)NC(=O)[C@H](CCCCN)NC(=O)[C@H](Cc1ccccc1)NC(=O)[C@H](CC(C)C)NC(=O)[C@H](CCCCN)NC(=O)[C@@H](N)Cc1c[nH]c2ccccc12)C(=O)N[C@@H](CC(C)C)C(=O)N[C@@H](CCCCN)C(=O)N[C@@H](Cc1ccc(O)cc1)C(=O)N[C@@H](CC(C)C)C(N)=O = 2

Let us move to another entry and its MIC Values, E. coli.
Exam item: Report measured MIC Values, E. coli; entry is `CC[C@H](C)[C@H](N)C(=O)N[C@@H](CCCCN)C(=O)N[C@@H](CC(C)C)C(=O)N[C@@H](Cc1ccccc1)C(=O)N[C@@H](CCCCN)C(=O)N[C@@H](CCCCN)C(=O)N[C@H](C(=O)N[C@@H](CC(C)C)C(=O)N[C@@H](CCCCN)C(=O)N[C@@H](Cc1ccc(O)cc1)C(=O)N[C@@H](CC(C)C)C(N)=O)[C@@H](C)CC`
Marked response: 3
